Taken from patent US8993594B2.

# assay summary: Pharmacokinetics and oral bioavailability in the mouse
# Type: in vivo
# recorded conditions: male, Balb Nu/Nu, plasma, 10 mg/kg oral, mean value
value type: AUC (µM·h)
State just the number; it will be interpreted in µM·h.

Query: AUC; subject: Cl.NCCOc1c(-c2ccccc2)[nH]c(=O)c2cc(F)ccc12 11

Query: AUC; subject: CNCCCOc1c(-c2ccccc2)[nH]c(=O)c2ccccc12.Cl 0.52

Query: AUC; subject: COc1cccc(-c2[nH]c(=O)c3ccccc3c2OCCN)c1.Cl 2.94

Query: AUC; subject: COc1ccc(-c2[nH]c(=O)c3ccccc3c2OCCN)cc1.Cl 6.97

Query: AUC; subject: COc1ccc(-c2[nH]c(=O)c3cc(F)ccc3c2OCCN)cc1.Cl 8.32

Query: AUC; subject: Cl.NCCOc1c(-c2cccc(Cl)c2)[nH]c(=O)c2ccccc12 2.39

Query: AUC; subject: O=c1[nH]c(-c2cccc(O)c2)c(OCCCN2CCCCC2)c2ccccc12 0.64
